The origin of these recorded values is a melting point compilation (Tetko et al.; mined from patent text by program, amines drawn as free bases though some values may be those of a salt).

Form field: melting point (one value per entry).
assay-endpoint: melting point

[
  {
    "compound": "N#CCCCCCN1CCc2c(c3cc(F)ccc3n2-c2ccc(F)cc2)C1",
    "result": "90 to 98 °C"
  },
  {
    "compound": "CCOC(=O)[C@H](Cc1cc(Cl)c(N)c(Cl)c1)NC(=O)C(F)(F)F",
    "result": "124 to 125 °C"
  },
  {
    "compound": "COc1cc2c(cc1O)CCN(C(=O)c1ccc(OC)c(OC)c1)C2",
    "result": "132 to 133 °C"
  },
  {
    "compound": "CC1=C(Cn2ccnc2)CCc2ccc(C(=O)O)cc21",
    "result": "278 to 280 °C"
  },
  {
    "compound": "CC1C(=O)N(c2ccccc2O)Sc2ccccc21 (stereo not given)",
    "result": "162 to 164 °C"
  },
  {
    "compound": "CCC(C)C(NC(=O)C(C)N(C(=O)OC(C)(C)C)C1CCCCC1)C(=O)NC(CC1CCCCC1)C(O)C(O)CC(C)C (stereo not given)",
    "result": "181 to 182 °C"
  },
  {
    "compound": "CCCCCCCCCCCCCCOc1ccc(CC(=O)OC)cc1Cl",
    "result": "24 to 25 °C"
  },
  {
    "compound": "CCCCOC(=O)NCc1cccc(C(=O)C=CN(C)C)c1",
    "result": "80 to 82 °C"
  },
  {
    "compound": "CCOC(=O)[C@@H]1C[C@H](C(=O)O)Nc2cc(Cl)cc(Cl)c21 (relative stereo)",
    "result": "160 to 162 °C"
  },
  {
    "compound": "CNc1nnc(C(C)(CCl)CCl)s1",
    "result": "105 to 107 °C"
  }
]
